system: TFEB; assay: TFEB nuclear translocation assay, HeLa wt cells; assay type: cell-based; details: Homo sapiens, HeLa, 2 h, 2 hrs compound treatment, Table 1 does not say HeLa wt or TRPML1 KO

compound	AC50
CC(c1cccc(F)c1N1CCC(CN2CCC(F)(F)C2)CC1)S(=O)(=O)c1ccc(S(=O)(=O)N(C)C)cc1 (stereo not shown) [Compound A-802]	≤ 2 µM
CN1CC2(CCN(c3ccc(Cl)cc3NS(=O)(=O)c3ccc4c(c3)CCC4)CC2)c2ccc(F)cc21 [Compound A-439]	≤ 2 µM
CC1(C)CC2(CCN(c3ccccc3NS(=O)(=O)c3ccc4c(c3)COC4(C)C)CC2)CO1 [Compound A-700]	2.01 to 8 µM
CN(C)S(=N)(=O)c1ccc(S(=O)(=O)Nc2ccccc2N2CCN(C(=O)C(C)(C)C)CC2)cc1 (stereo not shown) [Compound A-321]	≥ 10 µM
CCOC1(C)CCN(c2ccccc2NS(=O)(=O)c2ccc(S(=O)(=O)N(C)C)cc2)CC1 [Compound A-523]	≤ 2 µM
CN1C(=O)c2cc(F)ccc2C12CCN(c1ccccc1NS(=O)(=O)c1ccc(S(=O)(=O)N(C)C)cc1)CC2 [Compound A-301]	≤ 2 µM
CC1(C)Cc2cc(S(=O)(=O)Nc3ccccc3N3CCN(C(=O)C(C)(C)C)CC3)ccc2O1 [Compound A-514]	≤ 2 µM

###

system: TFEB; experiment: TFEB nuclear translocation assay, HeLa wt cells; assay type: cell-based; settings: Homo sapiens, HeLa, 2 h, 2 hrs compound treatment, Table 1 does not say HeLa wt or TRPML1 KO
quantity-measured: AC50

compound	recorded-measurement
CN1Cc2ccccc2C2(CCN(c3ccccc3NS(=O)(=O)c3ccc(S(C)(=O)=O)cc3)CC2)C1	2.01 to 8 µM
COc1ccc(S(=O)(=O)Nc2nccnc2N2CCN(c3ncc(Cl)cc3F)CC2)cc1	≥ 10 µM
CC(C)(C)C(=O)N1CCN(c2ccccc2NS(=O)(=O)c2ccc(C(F)F)cc2)CC1	2.01 to 8 µM
CC(=O)N1CCC(S(=O)(=O)Nc2ccccc2N2CCN(c3ccc(Cl)cc3F)CC2)CC1	2.01 to 8 µM
CN(C)S(=O)(=O)c1ccc(S(=O)(=O)N(C)c2ccccc2N2CCC(c3ccc(Cl)cc3F)CC2)cc1	≤ 2 µM
CN(C)S(=O)(=O)c1ccc(S(=O)(=O)Nc2cccc(F)c2N2CCC(CN3CCC(F)(F)C3)CC2)cc1	≤ 2 µM
COCC1(C)CCN(c2ccccc2NS(=O)(=O)C2CCc3ccccc32)CC1 (stereo not shown)	8.01 to 9.99 µM

###

system: TFEB; assay: TFEB nuclear translocation assay, HeLa wt cells; assay type: cell-based; conditions: Homo sapiens, HeLa, 2 h, 2 hrs compound treatment, Table 1 does not say HeLa wt or TRPML1 KO

molecule	AC50
CC(c1cccnc1N1CCC(CN2C[C@@H](C)O[C@@H](C)C2)CC1)S(=O)(=O)c1ccc(S(=O)(=O)N(C)C)cc1 (stereo partly shown) [Compound A-879]	≤ 2000 nM
COCC1(C)CCN(c2ccccc2NS(=O)(=O)C2(c3ccccc3)CC2)CC1 [Compound A-649]	2010 to 8000 nM
COCCN1CC2(CCN(c3ccccc3NS(=O)(=O)c3ccc(S(C)(=O)=O)cc3)CC2)c2ccc(F)cc21 [Compound A-466]	≤ 2000 nM
CC(C)CN1CCN(c2ccccc2CS(=O)(=O)c2ccc(S(=O)(=O)N(C)C)cc2)CC1 [Compound A-599]	2010 to 8000 nM
CS(=O)(=O)c1ccc(S(=O)(=O)Nc2ccccc2N2CCC3(CC2)CN(CC2CC2(F)F)c2cc(F)ccc23)cc1 (stereo not shown) [Compound A-468]	≤ 2000 nM
C[C@@H]1CN(CC2(C)CCN(c3c(F)cccc3NS(=O)(=O)c3ccc(S(=O)(=O)N(C)C)cc3)CC2)C[C@H](C)O1 [Compound A-781]	≤ 2000 nM
CN(C)S(=O)(=O)c1ccc(S(=O)(=O)Nc2ccccc2N2CCC(C3CCCO3)CC2)cc1 (stereo not shown) [Compound A-419]	≤ 2000 nM
